These data points were gathered from paper PMC5078989.

# Test system: panel of cancer cell lines
# method: Cell viability (CellTiter-Glo) dose-response across cancer cell line panel;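 also: after 72 h compound incubation with CellTiter-Glo ATP readout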
# Type: cell-based, human
# conditions: Homo sapiens, SU-DHL10, SU-DHL-10 cells
pEC50: −log10 of the molar value.
assay.endpoint: pEC50

COCc1ccccc1NCc1ccc([C@@H]2[C@H](O)CCCc3cncn32)c(-c2ccccc2Cl)c1: 5.24

====

# System: panel of cancer cell lines
# method: Cell viability (CellTiter-Glo) dose-response across cancer cell line panel;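 also: after 72 h compound incubation with CellTiter-Glo ATP readout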
# Format: cell-based, human
# conditions: Homo sapiens, NCI-H1341 cells
assay.endpoint: EC50

COCc1ccccc1NCc1ccc([C@@H]2[C@H](O)CCCc3cncn32)c(-c2ccccc2Cl)c1 [CSN5i-2e]: 10.2 µM

====

# System: panel of cancer cell lines
# method: Cell viability (CellTiter-Glo) dose-response across cancer cell line panel;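 also: after 72 h compound incubation with CellTiter-Glo ATP readout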
# Format: cell-based, human
# conditions: Homo sapiens, MV4-11, cell line MV-4-11
assay.endpoint: EC50 (nM)

CC(C)C[C@H](NC(=O)[C@H](Cc1ccccc1)NC(=O)c1cnccn1)B(O)O: 5.18

====

# System: panel of cancer cell lines
# method: Cell viability (CellTiter-Glo) dose-response across cancer cell line panel;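 also: after 72 h compound incubation with CellTiter-Glo ATP readout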
# Format: cell-based, human
# conditions: Homo sapiens, NCI-H1184
assay.endpoint: EC50

CC(C)C[C@H](NC(=O)[C@H](Cc1ccccc1)NC(=O)c1cnccn1)B(O)O [Bortezomib]: 7.24 nM

====

Reported pEC50 is given for each of the following molecules.
# Test system: panel of cancer cell lines
# method: Cell viability (CellTiter-Glo) dose-response across cancer cell line panel;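 also: after 72 h compound incubation with CellTiter-Glo ATP readout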
# Format: cell-based, human
# conditions: Homo sapiens, KBM-7, KBM-7
pEC50: −log10 of the molar value.
assay.endpoint: pEC50

NS(=O)(=O)OC[C@@H]1C[C@@H](n2ccc3c(N[C@H]4CCc5ccccc54)ncnc32)C[C@@H]1O [MLN4924]: 6.98
COCc1ccccc1NCc1ccc([C@H]2[C@@H](O)CCCc3cncn32)c(-c2ccccc2Cl)c1 [CSN5i-2]: 6.64

====

# Tested on: panel of cancer cell lines
# method: Cell viability (CellTiter-Glo) dose-response across cancer cell line panel;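 also: after 72 h compound incubation with CellTiter-Glo ATP readout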
# Assay type: cell-based, human
# conditions: Homo sapiens, NCI-H460, NCI-H460 cells
assay.endpoint: EC50 (µM)

COCc1ccccc1NCc1ccc([C@@H]2[C@H](O)CCCc3cncn32)c(-c2ccccc2Cl)c1: 10.1

====

# Tested on: panel of cancer cell lines
# method: Cell viability (CellTiter-Glo) dose-response across cancer cell line panel;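 also: after 72 h compound incubation with CellTiter-Glo ATP readout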
# Assay type: cell-based, human
# conditions: Homo sapiens, NCI-H1975, NCI-H1975 cells
assay.endpoint: EC50 (µM)

COCc1ccccc1NCc1ccc([C@@H]2[C@H](O)CCCc3cncn32)c(-c2ccccc2Cl)c1 [CSN5i-2e]: 11.3

====

# Test system: panel of cancer cell lines
# method: Cell viability (CellTiter-Glo) dose-response across cancer cell line panel;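 also: after 72 h compound incubation with CellTiter-Glo ATP readout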
# Assay type: cell-based, human
# conditions: Homo sapiens, NCI-H2122, cell line NCI-H2122
assay.endpoint: EC50

CC(C)C[C@H](NC(=O)[C@H](Cc1ccccc1)NC(=O)c1cnccn1)B(O)O: 22.5 nM

====

# Tested on: panel of cancer cell lines
# method: Cell viability (CellTiter-Glo) dose-response across cancer cell line panel;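 also: after 72 h compound incubation with CellTiter-Glo ATP readout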
# Assay type: cell-based, human
# conditions: Homo sapiens, PSN1, PSN1
# Method: Next, we explored the effect of CSN5 inhibition on the viability of cancer cells. […] A standardized CellTiter-Glo Assay (Promega #G7570) based on the quantification of ATP was applied according to the manufacturer's protocol to measure the amount of viable cells in culture. […] EC50 values were calculated from the plot of percentage of inhibition versus inhibitor concentration using the nonlinear regression analysis software Origin 7.5SR6 (OriginLab Corp.).
pEC50: −log10 of the molar value.
Listed compounds paired with reported pEC50
assay.endpoint: pEC50

NS(=O)(=O)OC[C@@H]1C[C@@H](n2ccc3c(N[C@H]4CCc5ccccc54)ncnc32)C[C@@H]1O [MLN4924]: 5.92
COCc1ccccc1NCc1ccc([C@H]2[C@@H](O)CCCc3cncn32)c(-c2ccccc2Cl)c1 [CSN5i-2]: 5.77

====

# Test system: panel of cancer cell lines
# method: Cell viability (CellTiter-Glo) dose-response across cancer cell line panel;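 also: after 72 h compound incubation with CellTiter-Glo ATP readout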
# Format: cell-based, human
# conditions: Homo sapiens, A2058, A2058
assay.endpoint: EC50 (nM)

COCc1ccccc1NCc1ccc([C@H]2[C@@H](O)CCCc3cncn32)c(-c2ccccc2Cl)c1: 2050
NS(=O)(=O)OC[C@@H]1C[C@@H](n2ccc3c(N[C@H]4CCc5ccccc54)ncnc32)C[C@@H]1O: 316
CC(C)C[C@H](NC(=O)[C@H](Cc1ccccc1)NC(=O)c1cnccn1)B(O)O: 19.4

====

Reported pEC50 by item:
# Tested on: panel of cancer cell lines
# method: Cell viability (CellTiter-Glo) dose-response across cancer cell line panel;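 also: after 72 h compound incubation with CellTiter-Glo ATP readout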
# Assay type: cell-based, human
# conditions: Homo sapiens, DU-4475, DU4475
# Description: Next, we explored the effect of CSN5 inhibition on the viability of cancer cells. […] A standardized CellTiter-Glo Assay (Promega #G7570) based on the quantification of ATP was applied according to the manufacturer's protocol to measure the amount of viable cells in culture. […] EC50 values were calculated from the plot of percentage of inhibition versus inhibitor concentration using the nonlinear regression analysis software Origin 7.5SR6 (OriginLab Corp.).
pEC50: −log10 of the molar value.
assay.endpoint: pEC50

COCc1ccccc1NCc1ccc([C@H]2[C@@H](O)CCCc3cncn32)c(-c2ccccc2Cl)c1 [CSN5i-2]: 6.66
NS(=O)(=O)OC[C@@H]1C[C@@H](n2ccc3c(N[C@H]4CCc5ccccc54)ncnc32)C[C@@H]1O [MLN4924]: 7.00
CC(C)C[C@H](NC(=O)[C@H](Cc1ccccc1)NC(=O)c1cnccn1)B(O)O [Bortezomib]: 8.30

====

# Tested on: panel of cancer cell lines
# method: Cell viability (CellTiter-Glo) dose-response across cancer cell line panel;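 also: after 72 h compound incubation with CellTiter-Glo ATP readout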
# Type: cell-based, human
# conditions: Homo sapiens, NCI-H1781, cell line NCI-H1781
assay.endpoint: EC50

CC(C)C[C@H](NC(=O)[C@H](Cc1ccccc1)NC(=O)c1cnccn1)B(O)O: 12.9 nM

====

# Tested on: panel of cancer cell lines
# method: Cell viability (CellTiter-Glo) dose-response across cancer cell line panel;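 also: after 72 h compound incubation with CellTiter-Glo ATP readout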
# Format: cell-based, human
# conditions: Homo sapiens, HMC-1-8
assay.endpoint: EC50 (nM)

NS(=O)(=O)OC[C@@H]1C[C@@H](n2ccc3c(N[C@H]4CCc5ccccc54)ncnc32)C[C@@H]1O [MLN4924]: 154
CC(C)C[C@H](NC(=O)[C@H](Cc1ccccc1)NC(=O)c1cnccn1)B(O)O [Bortezomib]: 7.01
COCc1ccccc1NCc1ccc([C@H]2[C@@H](O)CCCc3cncn32)c(-c2ccccc2Cl)c1 [CSN5i-2]: 1110

====

# Tested on: panel of cancer cell lines
# method: Cell viability (CellTiter-Glo) dose-response across cancer cell line panel;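 also: after 72 h compound incubation with CellTiter-Glo ATP readout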
# Format: cell-based, human
# conditions: Homo sapiens, KYM-1
assay.endpoint: EC50 (nM)

CC(C)C[C@H](NC(=O)[C@H](Cc1ccccc1)NC(=O)c1cnccn1)B(O)O: 4.88

====

# Test system: panel of cancer cell lines
# method: Cell viability (CellTiter-Glo) dose-response across cancer cell line panel;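 also: after 72 h compound incubation with CellTiter-Glo ATP readout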
# Assay type: cell-based, human
# conditions: Homo sapiens, MOG-G-CCM cells
assay.endpoint: EC50 (µM)

COCc1ccccc1NCc1ccc([C@@H]2[C@H](O)CCCc3cncn32)c(-c2ccccc2Cl)c1: 10.9

====

# Tested on: panel of cancer cell lines
# method: Cell viability (CellTiter-Glo) dose-response across cancer cell line panel;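 also: after 72 h compound incubation with CellTiter-Glo ATP readout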
# Assay type: cell-based, human
# conditions: Homo sapiens, NCI-H1755, NCI-H1755 cells
assay.endpoint: EC50 (µM)

COCc1ccccc1NCc1ccc([C@@H]2[C@H](O)CCCc3cncn32)c(-c2ccccc2Cl)c1: 12.8

====

Sequence of the target: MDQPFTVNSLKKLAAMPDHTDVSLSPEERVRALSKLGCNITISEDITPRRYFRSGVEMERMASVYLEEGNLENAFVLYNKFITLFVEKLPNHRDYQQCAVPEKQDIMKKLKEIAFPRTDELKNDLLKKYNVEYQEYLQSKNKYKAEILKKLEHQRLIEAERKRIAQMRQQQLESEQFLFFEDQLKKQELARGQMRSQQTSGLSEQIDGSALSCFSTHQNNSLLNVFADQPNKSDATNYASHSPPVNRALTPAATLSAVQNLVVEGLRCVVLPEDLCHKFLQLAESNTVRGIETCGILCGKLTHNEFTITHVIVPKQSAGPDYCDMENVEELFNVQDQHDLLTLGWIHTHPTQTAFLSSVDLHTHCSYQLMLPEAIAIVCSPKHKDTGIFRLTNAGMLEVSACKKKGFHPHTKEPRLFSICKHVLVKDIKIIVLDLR
pIC50: −log10 of the molar value.
assay.endpoint: pIC50

CC(C)n1nc(C(F)F)cc1C(=O)Nc1ccc([C@H]2[C@@H](O)CCCc3cncn32)c(-c2ccccc2)c1: < 4.00
COCc1ccccc1NCc1ccc([C@@H]2[C@H](O)CCCc3cncn32)c(-c2ccccc2Cl)c1: < 4.00
